Tested on: Escherichia coli TOP10
Experiment Notes: shrunken log2 fold change of peptide-encoding DNA abundance (4.5 h post-induction vs induction); higher = less antimicrobial activity (less host growth inhibition)
Cond: time post-induction: 4.5 h; library: site-saturation at positions 5, 18, 19, 20
Entries are grouped by shrunken log2 fold change into these classes: class 0: < -0.1; class 1: ≥ -0.1 and < 0.07; class 2: ≥ 0.07

# Sequence Content, Class Label
records = [
    ("RRIRMRPPRLPRPRPRPIRPPRP", "class 0"),
    ("RRIRKRPPRLPRPRPRPPKYPRP", "class 1"),
    ("RRIRLRPPRLPRPRPRPMETPRP", "class 2"),
    ("RRIRNRPPRLPRPRPRPECIPRP", "class 2"),
    ("RRIRWRPPRLPRPRPRPQHWPRP", "class 1"),
]

Query block: Any idea which band RRIRARPPRLPRPRPRPDIQPRP is in?
Result block: class 0

----------
For each entry below, report its shrunken log2 fold change value.
System: Escherichia coli TOP10
Experiment Notes: shrunken log2 fold change of peptide-encoding DNA abundance (4.5 h post-induction vs induction); higher = less antimicrobial activity (less host growth inhibition)
Cond: time post-induction: 4.5 h; library: site-saturation at positions 5, 18, 19, 20
One number for each entry.

Please review the entries below; each comes with its answer.
# Sequence Content, Result Number
measured = [
    ("RRIRWRPPRLPRPRPRPEGNPRP", 0.29),
    ("RRIRKRPPRLPRPRPRPNDLPRP", -0.054),
    ("RRIRFRPPRLPRPRPRPSAYPRP", -0.791),
    ("RRIRRRPPRLPRPRPRPHEHPRP", -0.153),
    ("RRIRKRPPRLPRPRPRPCNQPRP", 0.0585),
]

Quick batch: shrunken log2 fold change for everything below.
1. RRIRLRPPRLPRPRPRPYVNPRP
2. RRIRYRPPRLPRPRPRPIVWPRP

Result block:
-0.23
0.0267

----------
For each of the sequences below, state its shrunken log2 fold change.
Tested on: Escherichia coli TOP10
Experiment Notes: shrunken log2 fold change of peptide-encoding DNA abundance (4.5 h post-induction vs induction); higher = less antimicrobial activity (less host growth inhibition)
Cond: time post-induction: 4.5 h; library: site-saturation at positions 5, 18, 19, 20
Answers are plain numbers.

Consider the reported shrunken log2 fold change for these sequences:
# Sequence Content, Test Target, shrunken log2 fold change
data = [
    ("RRIRWRPPRLPRPRPRPPAGPRP", "Escherichia coli TOP10", 0.83),
    ("RRIRQRPPRLPRPRPRPAGFPRP", "Escherichia coli TOP10", 0.266),
    ("RRIRDRPPRLPRPRPRPSQRPRP", "Escherichia coli TOP10", -0.0409),
    ("RRIRHRPPRLPRPRPRPMSPPRP", "Escherichia coli TOP10", 0.0565),
    ("RRIRSRPPRLPRPRPRPPVMPRP", "Escherichia coli TOP10", 0.0439),
]

For each of the sequences below, note its shrunken log2 fold change.
1. RRIRNRPPRLPRPRPRPRTIPRP
2. RRIRQRPPRLPRPRPRPINIPRP

Result block:
[-0.221, -0.21]

----------
System: Escherichia coli TOP10;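 also: peptides expressed intracellularly from a pBAD plasmid library in pooled LB shake-flask culture, induced with 0.3% L-arabinose, DNA abundance read by NGS, three biological replicates, DESeq2 with apeglm shrinkage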
Experiment Notes: shrunken log2 fold change of peptide-encoding DNA abundance (4.5 h post-induction vs induction); higher = less antimicrobial activity (less host growth inhibition)
Cond: time post-induction: 4.5 h; library: site-saturation at positions 5, 18, 19, 20
In this scheme, each record receives a class according to its shrunken log2 fold change; the ranges are lower level (below -0.1), middle level (-0.1 to below 0.1), upper level (0.1 or more)

# Sequence Content, Class Label
data = [
    ("RRIRKRPPRLPRPRPRPFIYPRP", "lower level"),
    ("RRIRYRPPRLPRPRPRPHDTPRP", "lower level"),
    ("RRIRYRPPRLPRPRPRPMLFPRP", "lower level"),
    ("RRIRWRPPRLPRPRPRPLIKPRP", "upper level"),
    ("RRIRLRPPRLPRPRPRPGQRPRP", "middle level"),
]

Query block: Bin this entry: RRIRTRPPRLPRPRPRPWPNPRP
Result block: lower level

Query block: Dear colleague, I would appreciate it if you could identify the bin for RRIRKRPPRLPRPRPRPYTCPRP and reply at your convenience.
Result block: lower level

Query block: Category of RRIRGRPPRLPRPRPRPPEAPRP , please.
Result block: upper level

Query block: Form field 'band' for RRIRGRPPRLPRPRPRPRPVPRP
Result block: upper level

Query block: Consider RRIRIRPPRLPRPRPRPSNCPRP . To which shrunken log2 fold change class does it belong?
Result block: lower level

Query block: Each sequence maps to one class by shrunken log2 fold change. Which class for RRIRTRPPRLPRPRPRPFFGPRP ?
Result block: middle level

Reference source for all entries: the supplement of paper PMC9112550
